Molecular target: human ether-à-go-go-related gene (hERG) potassium channel (human, UniProt Q12809);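 further: peak tail current of the secondary pulse compared with the same well before compound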
Sequence (Q12809 whole entry, looked up): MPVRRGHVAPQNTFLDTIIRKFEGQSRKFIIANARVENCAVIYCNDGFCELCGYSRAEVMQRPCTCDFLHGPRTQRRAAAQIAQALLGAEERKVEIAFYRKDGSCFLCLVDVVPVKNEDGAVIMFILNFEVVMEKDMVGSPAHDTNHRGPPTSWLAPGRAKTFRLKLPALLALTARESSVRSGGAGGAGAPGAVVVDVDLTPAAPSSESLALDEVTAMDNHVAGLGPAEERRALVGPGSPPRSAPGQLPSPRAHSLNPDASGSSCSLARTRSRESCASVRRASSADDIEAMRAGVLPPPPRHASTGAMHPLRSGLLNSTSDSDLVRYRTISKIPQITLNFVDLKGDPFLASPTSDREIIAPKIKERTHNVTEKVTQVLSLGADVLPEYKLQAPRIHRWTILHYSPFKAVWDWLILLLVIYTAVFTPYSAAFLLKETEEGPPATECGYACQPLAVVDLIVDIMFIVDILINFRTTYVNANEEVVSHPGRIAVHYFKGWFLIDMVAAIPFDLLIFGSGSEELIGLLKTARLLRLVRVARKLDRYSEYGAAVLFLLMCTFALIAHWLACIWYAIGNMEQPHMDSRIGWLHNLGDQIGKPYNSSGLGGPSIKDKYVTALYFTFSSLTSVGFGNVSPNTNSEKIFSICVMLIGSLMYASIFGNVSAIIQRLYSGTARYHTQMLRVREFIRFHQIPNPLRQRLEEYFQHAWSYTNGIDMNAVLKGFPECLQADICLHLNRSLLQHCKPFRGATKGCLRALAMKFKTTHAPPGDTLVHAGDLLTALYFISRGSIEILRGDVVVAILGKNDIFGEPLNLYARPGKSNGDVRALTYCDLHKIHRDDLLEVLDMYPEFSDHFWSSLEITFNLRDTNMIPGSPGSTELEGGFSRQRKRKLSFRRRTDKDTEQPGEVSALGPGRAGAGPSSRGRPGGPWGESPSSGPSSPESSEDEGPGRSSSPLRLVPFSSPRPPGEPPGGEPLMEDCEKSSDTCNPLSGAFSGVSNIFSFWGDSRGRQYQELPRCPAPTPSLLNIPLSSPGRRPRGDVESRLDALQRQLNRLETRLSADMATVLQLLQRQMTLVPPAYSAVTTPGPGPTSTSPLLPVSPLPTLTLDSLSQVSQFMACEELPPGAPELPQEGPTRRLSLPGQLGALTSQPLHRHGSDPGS
Test: primary screen, population patch clamp on CHO cells stably expressing hERG; higher = less effect of the substance
Hit rate of the full screen: of about 310,000 compounds, about 14,000 (4.5%) showed an effect of 50% or more. Effects have a minus sign here. Shown is part of a subset that was picked to be rich in strong results.
Response key: true means hERG current change (%, negative = inhibition) at 10uM >= -20%; false means hERG current change (%, negative = inhibition) at 10uM < -20%.

Examples from the recorded data:
CCc1ccc(NC2=NC(C(=O)NC3CCCCC3)CC(=O)N2)cc1 (centres unmarked) : true
NC(N)=N/N=C/c1ccc(OS(=O)(=O)c2ccccc2)cc1 : false
Cc1nn(-c2ccccc2)c2[nH]c(=O)c(CNCc3ccc4c(c3)OCO4)cc12 : false
CCN1CCC(NCCc2ccc(F)cc2)CC1 : true
CC(OC(=O)c1ccccc1C(=O)N(C)c1ccccc1)C(=O)Nc1ccc(C(N)=O)cc1 (centres unmarked) : true
NC(N)=N/N=C/c1ccc(N(c2ccccc2)c2ccccc2)cc1.O=[N+]([O-])O : false
CC(C)(C)c1nn(-c2ccccc2)c2[nH]c(=O)c(CNCc3ccc4c(c3)OCO4)cc12 : true
CC(C)C(CCNC1CCN(C)CC1)c1ccc(Cl)cc1 (centres unmarked) : true

stdin: Check the entry CCn1nc(C(=O)OCC(=O)NC(C)C)c2ccccc2c1=O : does hERG current change (%, negative = inhibition) at 10uM equal or exceed -20%?
stdout: true

stdin: Check the entry CCC(C)CCN1C(N(C)C)=NC[C@@H]1C (some centres unmarked) : does hERG current change (%, negative = inhibition) at 10uM equal or exceed -20%?
stdout: true

stdin: Check the entry Cc1cccc(N(C(=O)c2csnn2)C(C(=O)NCc2ccccc2)c2ccncc2)c1 (centres unmarked) : does hERG current change (%, negative = inhibition) at 10uM equal or exceed -20%?
stdout: true

stdin: Check the entry Cn1cc(S(=O)(=O)N2CCOCC2)cc1C(=O)Nc1ccc(Cl)cc1 : does hERG current change (%, negative = inhibition) at 10uM equal or exceed -20%?
stdout: false

stdin: Check the entry Cc1nn(-c2ccc(Cl)cc2)c2[nH]c(=O)c(CNCc3ccc4c(c3)OCO4)cc12 : does hERG current change (%, negative = inhibition) at 10uM equal or exceed -20%?
stdout: false

stdin: Check the entry CC(C)(C)C(=O)Nc1ccc(S(=O)(=O)c2ccc(NC(=O)C(C)(C)C)cc2)cc1 : does hERG current change (%, negative = inhibition) at 10uM equal or exceed -20%?
stdout: true

stdin: Check the entry O=C(O)C1(NS(=O)(=O)c2ccc(F)c(Cl)c2)CCCCC1 : does hERG current change (%, negative = inhibition) at 10uM equal or exceed -20%?
stdout: true

stdin: Check the entry O=C(Nc1scc(-c2ccccc2)c1C(=O)O)c1ccco1 : does hERG current change (%, negative = inhibition) at 10uM equal or exceed -20%?
stdout: true

stdin: Check the entry O=C(Nc1ccc(Cl)cc1)c1cc(S(=O)(=O)N2CCOCC2)cs1 : does hERG current change (%, negative = inhibition) at 10uM equal or exceed -20%?
stdout: false

stdin: Check the entry CN1CC(=O)N(CC(=O)Nc2ccc(SC(F)F)cc2)C1=O : does hERG current change (%, negative = inhibition) at 10uM equal or exceed -20%?
stdout: false

stdin: Check the entry Cc1ccc(NC(=O)c2cc(S(=O)(=O)N3CCOCC3)cs2)cc1 : does hERG current change (%, negative = inhibition) at 10uM equal or exceed -20%?
stdout: true

stdin: Check the entry COc1cccc(OC)c1C(=O)NNS(=O)(=O)c1ccc2ccccc2c1 : does hERG current change (%, negative = inhibition) at 10uM equal or exceed -20%?
stdout: true

Values compiled from paper PMC4336329.
